Origin of the recorded values: PubChem BioAssay (NCI)

growth inhibition listing for selected compounds.
# test.name: NCI Yeast Anticancer Drug Screen. Data for the bub3 strain (AID 167)
# test.context: S. cerevisiae bub3 mutant strain, at 50.0 µM (retest, dose inferred, filed as 5.0), active compounds read high
This is part of a sample that, as a whole, favours compounds with a hit. Of some 79,000 tested, about 15% had one in any assay.
endpoint.name: growth inhibition (%)

In [3]: df
Out[3]:
                                    compound  reported_result
 0               S=C(N/N=C/c1ccccn1)N1CCCCC1              100
 1  COc1ccc2nc3cc(Cl)ccc3c(NCCC[N+](C)(C)CCCCCCCCCCCCCCCC[N+](C)(C)CCCNc3c4ccc(Cl)cc4nc4ccc(OC)cc34)c2c1               99
 2          Cc1[nH]nc(C(=O)OC(C)C)c1N=NN(C)C               95
 3  CC1(C)N([O-])[N+](=O)C1(Br)c1ccccc1 (stereo unspecified)               96
 4  Cc1ccc(C2(O)CC(c3ccc([N+](=O)[O-])o3)=NN2C(=O)COc2ccc(Cl)cc2)cc1 (stereo unspecified)               10
 5                      NNc1c(Cl)cc(Cl)cc1Cl               93
 6  N#CC(Cc1ccc(CC(C#N)(c2ccccc2)c2ccccn2)cc1)(c1ccccc1)c1ccccn1 (stereo unspecified)               -8
 7  N#CC(c1c(Cl)cccc1N1CCCCC1)N1CCCCC1 (stereo unspecified)               92
 8                           CNC(=O)NN(C)C=O               -5
 9  OC(Cc1ccc(Br)cc1)CN1CCC(c2ccccc2)CC1 (stereo unspecified)               83
10  CC(O[Si](C)(C)C(C)(C)C)C(=O)Sc1ccccn1 (stereo unspecified)               99
11               CCCCCCCCCCCCCCOCCS(=O)(=O)O               85
12       N=C(N)c1ccc(OCCCCOc2ccc(N)cc2Cl)cc1               97
13  CCOC(=O)Nc1cc2c(cc1Br)-c1ccccc1C2O (stereo unspecified)               95
14  CSC(=S)n1nc(-c2cccs2)c(N=Nc2ccccc2)c1C(F)(F)F               97
15       Clc1ccc(CN2COc3c(ccc4ccccc34)C2)cc1               96
16  Oc1c(Cl)cc(C(c2cc(Cl)c(O)c(Cl)c2)C(Cl)(Cl)Cl)cc1Cl               99
17            CC(C)OCc1cccc2ccnc(COC(C)C)c12               91
18  Nc1ccc(S(=O)(=O)C23CC4CC(CC(C4)C2)C3)cc1               98
19             CC(C)C(=O)/C=C/c1ccc(Cl)cc1Cl               54
20                    CCCCCN=C(C)C(C)=NCCCCC               86
21  CCCCCCN(S(=O)(=O)c1ccc([N+](=O)[O-])cc1)S(=O)(=O)c1ccc([N+](=O)[O-])cc1               50
22  COc1cc(C2c3cc4c(cc3C(OC3CCCCO3)C3COC(=O)C23)OCO4)cc(OC)c1OC (stereo unspecified)               30
23  Cc1ccc(S(=O)(=O)CC2(Br)Cc3ccccc3C2=O)cc1 (stereo unspecified)               99
24  c1ccc([P+](CCCCCC[P+](c2ccccc2)(c2ccccc2)c2ccccc2)(c2ccccc2)c2ccccc2)cc1               77
25  CN(C)CCC(=O)[C@@]1(O)CC[C@H]2[C@@H]3CC=C4C[C@@H](O)CC[C@]4(C)[C@H]3CC[C@@]21C               59
26                 C/C(=N\Nc1ccccn1)c1ccccn1               98
27                  O=[N+]([O-])/C=C/c1ccco1               99
28  O=C(Nc1cccc(C(F)(F)F)c1)c1cc(Br)cc(Br)c1O               83
29  Cc1cc[c]([Sn]([Cl])([O][Sn]([Cl])([c]2ccc(C)cc2)[c]2ccc(C)cc2)[c]2ccc(C)cc2)cc1               67
30         CNC(=O)OCC1=CC(=O)C(OC)=C(OC)C1=O               -6
31          CN(C)CCCC(C#N)(CCCN(C)C)c1ccccc1               -1
32         C=CC(=O)Oc1ccccc1/C=C/C(=O)CCCCCC               95
33  CCOCCC(=O)N1c2ccccc2CC1c1c[nH]c2ccccc12 (stereo unspecified)               48
34  CC(=O)NC1CCCCC1CC1CCCCC1 (stereo unspecified)              -49
35  O=C(Nc1ccc(Cl)cc1Cl)OC(Cn1cncn1)c1ccc(Cl)cc1Cl (stereo unspecified)               72
36  CC/C(C)=C1\CCC(CN2CCOCC2)C1=O (stereo unspecified)               94
37       CCCc1nc2ccccc2c(=O)n1/N=C/c1ccccc1O               -2
38  Cc1cccc(NC(=O)C(=O)C(C2OC(=O)c3ccccc32)[N+](=O)[O-])c1C (stereo unspecified)               92
39               O=C(NO)C(=O)Nc1cc(Cl)ccc1Cl               94
40                  O=C1CCS(=O)(=O)c2ccccc21               99
41  O=C1CC2(CCN(CC3COc4ccccc4O3)CC2)C(=O)N1N1CCCCCC1 (stereo unspecified)               68
42                            CC(C)C(O)C(C)C               -7
43  OC(CBr)C[n+]1cccc2cc(Cl)ccc21 (stereo unspecified)                6
44  CCN(CC)c1cc(Nc2c3ccc(Cl)cc3nc3cc(Cl)ccc23)ccc1O              -10
45  CCN(CC)C(C)(C)C(=O)/C=C/c1ccc(Cl)c(Cl)c1               98
